# credit: ChEMBL document CHEMBL1148617

- Tgt: UniProt:P29275
- Sequence (P29275 whole entry): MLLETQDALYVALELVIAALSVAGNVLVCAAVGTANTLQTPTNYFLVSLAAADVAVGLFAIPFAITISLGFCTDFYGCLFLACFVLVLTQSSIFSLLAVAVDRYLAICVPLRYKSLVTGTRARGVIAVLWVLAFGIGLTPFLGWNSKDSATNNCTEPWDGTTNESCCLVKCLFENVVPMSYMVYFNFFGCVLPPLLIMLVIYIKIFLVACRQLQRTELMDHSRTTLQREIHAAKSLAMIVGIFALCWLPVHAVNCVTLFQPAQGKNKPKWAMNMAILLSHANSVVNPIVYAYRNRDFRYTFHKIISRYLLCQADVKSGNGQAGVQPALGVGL
- Assay Explanation: Displacement of [3H]DPCPX from recombinant human adenosine A2B receptor expressed in HEK293 cells at 0.1 uM
- Assay type: cell-based
Tag: Satisfied if measured inhibition is not below 60%, Not satisfied if it is.

Below are worked cases with known answers.
{"columns": ["Smiles Repr", "Category Label"],
 "data": [
  ["Cn1c(=O)c2[nH]c(-c3cccc(OCC(=O)Nc4ccccc4)c3)cc2n(C)c1=O", "Not satisfied"],
  ["COc1cc(NC(=O)COc2ccc(-c3cc4c([nH]3)c(=O)n(C)c(=O)n4C)cc2)nc(OC)n1", "Not satisfied"],
  ["CCCn1c(=O)c2[nH]c(-c3ccc(OCC(=O)Nc4ccc(Cl)cc4)cc3)cc2n(CCC)c1=O", "Satisfied"],
  ["CCCn1c(=O)n(C)c(=O)c2[nH]c(-c3ccc(OCC(=O)N(C)Cc4ccccc4)cc3)cc21", "Not satisfied"],
  ["Cn1c(=O)c2[nH]c(-c3ccc(OCC(=O)Nc4ccc(F)cc4)cc3)cc2n(C)c1=O", "Satisfied"]
]}

Could you verify whether the entry CCCn1c(=O)c2[nH]c(-c3ccc(OCC(=O)Nc4ccccc4Cl)cc3)c(Cl)c2n(CCC)c1=O shows inhibition of no less than 60%? Not satisfied

Could you verify whether the entry CCCn1c(=O)c2[nH]c(-c3ccc(N(C=O)CC(=O)Nc4ccc(F)cc4)cc3)cc2n(CCC)c1=O shows inhibition of no less than 60%? Satisfied

Could you verify whether the entry COCCCn1c(=O)n(C)c(=O)c2[nH]c(-c3ccc(OCC(=O)NC4CCCC4)cc3)cc21 shows inhibition of no less than 60%? Not satisfied
